Where do the numbers come from? From patent US20170349593A1.

Target: BTK enzyme (recombinant full-length BTK, hBTK) (Homo sapiens)
Construct: recombinant protein from baculovirus-transfected S 19 cells: full-length BTK, 6 HIS-tag cleaved; 6 HIS-tag (cleaved yes)
Experiment: Btk enzyme activity assay (LANCE TR-FRET)
Settings: 50 pM hBTK, 25 μM ATP, 60 minute compound and enzyme incubation, concentration range 1 μM to 0.017 nM, read-out: BTK binding IC50
pIC50: −log10 of the molar value.
readout: pIC50

Guide cases for pIC50, answers given:
- molecule: "C[C@H](O)C(=O)N1C[C@H](c2nc(-c3ccc(C(=O)Nc4cc(C(F)(F)F)ccn4)cc3F)c3c(N)nccn23)OC[C@H]1C [Example 68]"
  readout value: 8.52
- molecule: "Cn1cc(CN2C[C@H](c3nc(-c4ccc(C(=O)Nc5cc(C(F)(F)F)ccn5)cc4F)c4c(N)nccn34)OC[C@H]2CO)cn1 [Example 64]"
  readout value: 8.36
- molecule: "COCC(=O)N1C[C@H](c2nc(-c3ccc(C(=O)Nc4cc(C(F)(F)F)ccn4)cc3F)c3c(N)nccn23)OC[C@H]1CO [Example 56]"
  readout value: 8.06

1: CCN1C[C@H](c2nc(-c3ccc(C(=O)Nc4cc(C(F)(F)F)ccn4)cc3OC)c3c(N)ncc(Cl)n23)OC[C@@H]1C [Example 26]
2: C[C@H]1CC[C@@H](c2nc(-c3ccc(C(=O)Nc4cc(C(F)F)ccn4)cc3)c3c(N)nccn23)CN1C(=O)C1(O)CC1 [Example 93]
3: C[C@H](O)C(=O)N1C[C@H](c2nc(-c3ccc(C(=O)Nc4cc(C(F)(F)F)ccn4)cc3F)c3c(N)nccn23)OC[C@H]1CO [Example 59]
# rank_down: sort by pIC50, max first Output spec: a listing of the labels in the requested order.
2, 1, 3
(2: 9.60, 1: 8.44, 3: 7.91)

----------
Biological target: BTK enzyme (recombinant full-length BTK, hBTK) (Homo sapiens)
Construct: recombinant protein from baculovirus-transfected S 19 cells: full-length BTK, 6 HIS-tag cleaved; 6 HIS-tag (cleaved yes)
Test: Btk enzyme activity assay (LANCE TR-FRET)
Settings: 50 pM hBTK, 25 μM ATP, 60 minute compound and enzyme incubation, concentration range 1 μM to 0.017 nM, read-out: BTK binding IC50
pIC50: −log10 of the molar value.
readout: pIC50

Below, 5 compounds whose answers are already recorded.
- compound: "C[C@H]1CC[C@@H](c2nc(-c3ccc(C(=O)Nc4cc(C(C)(F)F)ccn4)cc3)c3c(N)nccn23)CN1C(=O)N(C)C [Example 96]"
  pIC50: 9.78
- compound: "CS(=O)(=O)CC(=O)N1C[C@H](c2nc(-c3ccc(C(=O)Nc4cc(C(F)(F)F)ccn4)cc3F)c3c(N)nccn23)OC[C@H]1CO [Example 58]"
  pIC50: 8.16
- compound: "CCOc1cc(C(=O)Nc2cc(C(F)(F)F)ccn2)ccc1-c1nc([C@H]2CC[C@@H](C(F)(F)F)N(C(=O)C3CC3)C2)n2ccnc(N)c12 [Example 3]"
  pIC50: 6.00
- compound: "C[C@@H]1CO[C@@H](c2nc(-c3ccc(C(=O)Nc4cc(C(F)(F)F)ccn4)cc3F)c3c(N)nccn23)CN1Cc1cnn(C)c1 [Example 72]"
  pIC50: 8.84
- compound: "COc1cc(C(=O)Nc2cc(C(F)(F)F)ccn2)ccc1-c1nc([C@H]2CN(Cc3cnn(C)c3)[C@@H](C)CO2)n2c(Cl)cnc(N)c12 [Example 25]"
  pIC50: 8.71

A: CCOc1cc(C(=O)Nc2cc(C(F)(F)F)ccn2)ccc1-c1nc([C@H]2CN(CC)[C@@H](C)CO2)n2c(Cl)cnc(N)c12 [Example 24]
B: CCc1cnc(N)c2c(-c3ccc(C(=O)Nc4cc(C(F)(F)F)ccn4)cc3OC)nc([C@H]3CN(C(=O)C4CC4)[C@@H](C)CO3)n12 [Example 9]
C: COc1cc(C(=O)Nc2cc(C(F)(F)F)ccn2)ccc1-c1nc([C@H]2CN(C3CN(Cc4c(F)cccc4F)C3)[C@@H](C)CO2)n2ccnc(N)c12 [Example 30]
Place the items in sequence of falling pIC50. List the labels according to the requested ordering.
A, B, C

----------
Molecular target: BTK enzyme (recombinant full-length BTK, hBTK) (Homo sapiens)
Construct: recombinant protein from baculovirus-transfected S 19 cells: full-length BTK, 6 HIS-tag cleaved; 6 HIS-tag (cleaved yes)
Test: Btk enzyme activity assay (LANCE TR-FRET)
Conditions: 50 pM hBTK, 25 μM ATP, 60 minute compound and enzyme incubation, concentration range 1 μM to 0.017 nM, read-out: BTK binding IC50
pIC50: −log10 of the molar value.
readout: pIC50

I: COc1cc(C(=O)Nc2cc(C(F)(F)F)ccn2)ccc1-c1nc([C@H]2CN(C(=O)[C@@H](C)O)[C@@H](C)CO2)n2c(Cl)cnc(N)c12
II: C[C@H](O)C(=O)N1C[C@H](c2nc(-c3ccc(C(=O)Nc4cc(C5CC5)ccn4)cc3)c3c(N)nccn23)CC[C@@H]1C
Field: entry with larger pIC50 (options I / II ). Your answer should be the label attached to the chosen record.
II

----------
Target: BTK enzyme (recombinant full-length BTK, hBTK) (Homo sapiens, UniProt Q06187)
Construct: recombinant protein from baculovirus-transfected S 19 cells: full-length BTK, 6 HIS-tag cleaved; 6 HIS-tag (cleaved yes)
Sequence (Q06187 whole entry): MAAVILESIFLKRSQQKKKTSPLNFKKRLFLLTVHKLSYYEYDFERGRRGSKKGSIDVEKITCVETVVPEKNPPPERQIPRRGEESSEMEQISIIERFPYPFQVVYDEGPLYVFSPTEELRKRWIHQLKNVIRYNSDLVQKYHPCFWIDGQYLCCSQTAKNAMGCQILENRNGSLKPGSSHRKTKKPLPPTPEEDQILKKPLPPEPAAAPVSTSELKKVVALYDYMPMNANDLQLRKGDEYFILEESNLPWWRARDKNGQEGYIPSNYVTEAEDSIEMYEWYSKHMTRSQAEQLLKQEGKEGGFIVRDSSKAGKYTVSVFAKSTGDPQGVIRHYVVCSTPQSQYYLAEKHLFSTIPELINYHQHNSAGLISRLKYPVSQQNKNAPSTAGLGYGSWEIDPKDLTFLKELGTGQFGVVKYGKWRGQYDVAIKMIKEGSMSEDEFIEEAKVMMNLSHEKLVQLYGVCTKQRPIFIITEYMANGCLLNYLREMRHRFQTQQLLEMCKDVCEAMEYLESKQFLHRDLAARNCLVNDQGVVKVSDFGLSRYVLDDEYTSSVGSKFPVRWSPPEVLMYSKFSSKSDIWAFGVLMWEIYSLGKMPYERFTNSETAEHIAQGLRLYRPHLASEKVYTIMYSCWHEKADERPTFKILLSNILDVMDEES
Assay: Btk enzyme activity assay (LANCE TR-FRET)
Details: 50 pM hBTK, 25 μM ATP, 60 minute compound and enzyme incubation, concentration range 1 μM to 0.017 nM, read-out: BTK binding IC50
readout: IC50 (nM)

A: COc1cc(C(=O)Nc2cc(C(F)(F)F)ccn2)ccc1-c1nc([C@H]2CN(C(=O)C3(C)CC3)[C@@H](C)CO2)n2c(Cl)cnc(N)c12
B: CC(C)C(=O)N1C[C@H](c2nc(-c3ccc(C(=O)Nc4cc(C(F)(F)F)ccn4)cc3)c3c(N)nccn23)OC[C@@H]1C
C: CC(=O)N1C[C@H](c2nc(-c3ccc(C(=O)Nc4cc(C(F)(F)F)ccn4)cc3)c3c(N)nccn23)OC[C@@H]1C
Sort low-to-high on IC50, please. Answer by naming the labels in the order asked.
C, B, A
